- targetUnderTest: human TLR7 (Homo sapiens, UniProt Q9NYK1)
- Sequence (Q9NYK1 27-1049): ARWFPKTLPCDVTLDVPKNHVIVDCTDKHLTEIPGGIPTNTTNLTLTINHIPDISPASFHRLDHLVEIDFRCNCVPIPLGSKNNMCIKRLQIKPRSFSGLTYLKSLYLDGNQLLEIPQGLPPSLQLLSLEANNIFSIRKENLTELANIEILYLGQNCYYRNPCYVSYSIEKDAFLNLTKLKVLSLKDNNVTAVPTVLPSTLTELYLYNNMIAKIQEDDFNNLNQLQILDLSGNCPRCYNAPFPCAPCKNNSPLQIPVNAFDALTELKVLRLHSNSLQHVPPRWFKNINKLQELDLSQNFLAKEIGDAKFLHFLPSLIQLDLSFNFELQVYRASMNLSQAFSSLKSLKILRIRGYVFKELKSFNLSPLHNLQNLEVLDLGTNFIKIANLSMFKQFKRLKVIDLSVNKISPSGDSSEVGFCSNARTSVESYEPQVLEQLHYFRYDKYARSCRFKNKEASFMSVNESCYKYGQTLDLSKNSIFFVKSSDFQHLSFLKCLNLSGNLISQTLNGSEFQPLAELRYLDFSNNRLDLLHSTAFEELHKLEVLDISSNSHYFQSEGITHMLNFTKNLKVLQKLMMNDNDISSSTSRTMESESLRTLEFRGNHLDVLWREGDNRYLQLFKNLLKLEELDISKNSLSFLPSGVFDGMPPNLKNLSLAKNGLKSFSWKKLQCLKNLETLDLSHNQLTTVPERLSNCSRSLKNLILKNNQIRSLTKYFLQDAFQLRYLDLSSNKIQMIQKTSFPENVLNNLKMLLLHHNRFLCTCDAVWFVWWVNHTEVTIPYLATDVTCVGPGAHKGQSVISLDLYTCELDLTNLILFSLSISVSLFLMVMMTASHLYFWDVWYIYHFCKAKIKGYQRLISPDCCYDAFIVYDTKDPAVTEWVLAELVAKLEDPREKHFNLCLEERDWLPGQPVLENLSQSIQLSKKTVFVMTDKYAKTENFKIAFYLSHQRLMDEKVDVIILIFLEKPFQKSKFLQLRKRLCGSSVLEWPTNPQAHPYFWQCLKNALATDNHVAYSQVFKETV
- measurementProtocol: Human TLR7 agonist activity reporter assay (HEK-Blue TLR7 cells, SEAP reporter)
- assaySetup: 18 h treatment, average where assay was performed multiple times, read-out: hTLR7 Agonism EC50
readoutKind: EC50 (nM)

These solved cases illustrate the format of a correct answer.
> print(dat)
                                   molecule                           targetundertest  reading
1  CCC[C@@H](CCO)Nc1nc(N)nc2c(C)nn(Cc3ccc(CO)cc3OC)c12 [Compound 126]  human TLR7 (Homo sapiens, UniProt Q9NYK1)     63.4
2  CCC[C@@H](CCO)Nc1nc(N)nc2c(F)nn(Cc3ccc(CN[C@H]4COC[C@@H]4O)cc3OC)c12 [Compound 133]  human TLR7 (Homo sapiens, UniProt Q9NYK1)     47.9
3  CCCCNc1nc(N)nc2c(C)nn(Cc3ccc(CN4CCN(CC(C)(C)O)CC4)cc3OC)c12 [Compound 137]  human TLR7 (Homo sapiens, UniProt Q9NYK1)     65.8
4  CCC[C@@H](CCO)Nc1nc(N)nc2c(C)nn(Cc3ccc(CNC4CCOCC4)cc3OC)c12 [Compound 127]  human TLR7 (Homo sapiens, UniProt Q9NYK1)     21.8

P = CCCCNc1nc(N)nc2c(C)nn(Cc3ccc(CN4CCN(C)CC4)cc3OC)c12 [Compound 105]
Q = CCCCNc1nc(N)nc2c(-c3cccnc3)nn(Cc3ccc(CNC4CCOCC4)cc3OC)c12 [Compound 114]
Given P and given Q , which shows the smaller recorded EC50? Give the chosen item's label as your response.
P

* * *

- targetUnderTest: human TLR7 (Homo sapiens, UniProt Q9NYK1)
- measurementProtocol: Human TLR7 agonist activity reporter assay (HEK-Blue TLR7 cells, SEAP reporter)
- assaySetup: 18 h treatment, average where assay was performed multiple times, read-out: hTLR7 Agonism EC50
readoutKind: EC50 (µM)

These solved cases illustrate the format of a correct answer.
> print(dat)
                                   compound  valueunits  reading
1  CCCCNc1nc(N)nc2c(C3=CCOC3)nn(Cc3ccc(CNC4CCOCC4)cc3OC)c12          µM     1.56
2  CCCCNc1nc(N)nc2c(C)nn(Cc3ccc(CN4CCN(CCO)CC4)cc3OC)c12          µM   0.0633
3  CCCCNc1nc(N)nc2c(F)nn(Cc3ccc(CN4CCN(C)CC4)cc3OC)c12          µM   0.0121
4  CCCCNc1nc(N)nc2c(F)nn(Cc3ccc(CNC4CCC4)cc3OC)c12          µM   0.0465
5  CCCCNc1nc(N)nc2c(-c3cc[nH]n3)nn(Cc3ccc(CNC4CCOCC4)cc3OC)c12          µM     1.43
6  CCC[C@@H](CCO)Nc1nc(N)nc2c(C)nn(Cc3ccc(CN4CCN(CCO)CC4)cc3OC)c12          µM   0.0072
7  CCCCNc1nc(N)nc2c(F)nn(Cc3ccc(CNC4CCOCC4)cc3OC)c12          µM    0.072
8  CCCCNc1nc(N)nc2c(CO)nn(Cc3ccc(CNC4CCOCC4)cc3OC)c12          µM    0.594

A = CCCCNc1nc(N)nc2c(-c3ccncc3)nn(Cc3ccc(CNC4CCOCC4)cc3OC)c12
B = CCCCNc1nc(N)nc2c(C3CC3)nn(Cc3ccc(CNC4CCOCC4)cc3OC)c12
C = CCCCNc1nc(N)nc2c(C)nn(Cc3ccc(CNC4CCOCC4)cc3OC)c12
I would appreciate it if you could sort these 3 compounds by EC50, starting from the smallest number. Use the labels to give the requested order.
C, B, A
(C: 0.0913 µM, B: 0.21 µM, A: 2.43 µM)

1 = CCCCNc1nc(N)nc2c(C)nn(Cc3ncc(CN4CCN(CCO)CC4)cc3OC)c12
2 = CCCCNc1nc(N)nc2c(C)nn(Cc3ccc(CNC4CCC4)cc3OC)c12
Given 1 and given 2 , which shows the smaller recorded EC50? Give the chosen item's label as your response.
2

A = CCC[C@@H](CO)Nc1nc(N)nc2c(C)nn(Cc3ccc(CN4CCN(CCO)CC4)cc3OC)c12
B = CCC[C@@H](CCO)Nc1nc(N)nc2c(F)nn(Cc3ccc(CN[C@@H]4COC[C@H]4O)cc3OC)c12
Of the two listed items, which has the higher EC50? First: A Second: B Give the chosen item's label as your response.
A

* * *

- targetUnderTest: human TLR7 (Homo sapiens, UniProt Q9NYK1)
- measurementProtocol: Human TLR7 agonist activity reporter assay (HEK-Blue TLR7 cells, SEAP reporter)
- assaySetup: 18 h treatment, average where assay was performed multiple times, read-out: hTLR7 Agonism EC50
readoutKind: EC50 (nM)

These solved cases illustrate the format of a correct answer.
> print(dat)
                                   molecule  readoutkind  valueunits  reading
1  CCCCNc1nc(N)nc2c(OC)nn(Cc3ccc(CNC4CCOCC4)cc3OC)c12         EC50          nM     40.1
2  CCC[C@@H](CCO)Nc1nc(N)nc2c(C)nn(Cc3ccc(CN4CCN(C)CC4)cc3OC)c12         EC50          nM     5.93
3  CCCCNc1nc(N)nc2c(CO)nn(Cc3ccc(CN4CCN(CCO)CC4)cc3OC)c12         EC50          nM      433
4  CCCCNc1nc(N)nc2c(C3CCOC3)nn(Cc3ccc(CNC4CCOCC4)cc3OC)c12 (stereo not shown)         EC50          nM      798
5  CCCCNc1nc(N)nc2c(Br)nn(Cc3ccc(CNC4CCOCC4)cc3OC)c12         EC50          nM     2000

I = CCCCNc1nc(N)nc2c(CC)nn(Cc3ccc(CNC4CCOCC4)cc3OC)c12
II = CCCCNc1nc(N)nc2c(CO)nn(Cc3ccc(CN4CC(OC)C4)cc3OC)c12
Of the two listed items, which has the higher EC50? First: I Second: II Give the chosen item's label as your response.
II

a = CCC[C@@H](CCO)Nc1nc(N)nc2c(C)nn(Cc3ccc(CN[C@@H]4CCCOC4)cc3OC)c12
b = CCCCNc1nc(N)nc2c(F)nn(Cc3ccc(CN4CCN(CCO)CC4)cc3OC)c12
Given a and given b , which shows the smaller recorded EC50? Give the chosen item's label as your response.
b
(b: 22.9 nM, a: 93.8 nM)

1 = CCC[C@@H](CCO)Nc1nc(N)nc2c(C)nn(Cc3ncc(CN4CCN(CCO)CC4)cc3OC)c12
2 = CCCCNc1nc(N)nc2c(C)nn(Cc3ccc(CN4CCN(CCOC)CC4)cc3OC)c12
Of the two listed items, which has the higher EC50? First: 1 Second: 2 Give the chosen item's label as your response.
1
(1: 1110 nM, 2: 163 nM)
